- subject of test: human MDM2 protein (amino acids 2-188) (Homo sapiens, UniProt Q00987)
- Construct: human MDM2 protein (amino acids 2-188); made in house
- Sequence (Q00987 2-188): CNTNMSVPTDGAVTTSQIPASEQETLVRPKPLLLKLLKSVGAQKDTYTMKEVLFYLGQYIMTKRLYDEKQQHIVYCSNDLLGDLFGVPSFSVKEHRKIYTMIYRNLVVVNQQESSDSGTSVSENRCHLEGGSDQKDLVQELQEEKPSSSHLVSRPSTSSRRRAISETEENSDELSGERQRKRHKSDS
- assay procedure: p53-MDM2 TR-FRET assay, modified (p53-MDM2 Assay 2)
- Type: binding
- test conditions: 0.1 nM MDM2, 0.1 nM Europium labeled streptavidin; read-out: IC50 (nM) of p53-Hdm2 inhibition (TR-FRET) Assay 2

>  <compound>
[2H]C([2H])([2H])Oc1cc2c(cc1OC(C)C)[C@H](c1ccc(Cl)cc1)N(c1ccc([C@](C)(O)C3CCS(=O)(=O)CC3)cc1)C(=O)C2 (single isomer, unassigned) [Example 152]

>  <subject of test>
human MDM2 protein (amino acids 2-188) (Homo sapiens, UniProt Q00987)

>  <IC50 (nM)>
152

$$$$
>  <compound>
COc1cc2c(cc1OC(C)C)[C@H](c1ccc(Cl)cc1)N(c1ccc(C(C)(O)C3CC4CCCC(C3)N4C3COC3)cc1)C(=O)C2 (some centres unmarked) [Example 120]

>  <subject of test>
human MDM2 protein (amino acids 2-188) (Homo sapiens, UniProt Q00987)

>  <IC50 (nM)>
4.67

$$$$
>  <compound>
COc1cc2c(cc1OC(C)C)[C@H](c1ccc(Cl)cc1)N(c1ccc(C(C)(O)C3CC4CCCC(C3)N4CC(F)(F)F)cc1)C(=O)C2 (some centres unmarked) [Example 118]

>  <subject of test>
human MDM2 protein (amino acids 2-188) (Homo sapiens, UniProt Q00987)

>  <IC50 (nM)>
13.7

$$$$
>  <compound>
[2H]C([2H])([2H])Oc1cc2c(cc1OC(C)C)[C@H](c1ccc(Cl)cc1)N(c1ccc(C(C)(O)C3CCS(=O)(=O)CC3)cc1)C(=O)C2 (mixture of isomers) [Example 150]

>  <subject of test>
human MDM2 protein (amino acids 2-188) (Homo sapiens, UniProt Q00987)

>  <IC50 (nM)>
4.43

$$$$
>  <compound>
COc1cc2c(cc1OC(C)C)[C@H](c1ccc(Cl)cc1)N(c1ccc(C(C)(O)[C@H]3CCCN(C4COC4)C3)cc1)C(=O)C2 (some centres unmarked) [Example 183]

>  <subject of test>
human MDM2 protein (amino acids 2-188) (Homo sapiens, UniProt Q00987)

>  <IC50 (nM)>
8.78

$$$$

---

Quick reference for IC50 among some molecules
- subject of test: human MDM2 protein (amino acids 2-188) (Homo sapiens, UniProt Q00987)
- Construct: human MDM2 protein (amino acids 2-188); made in house
- assay procedure: p53-MDM2 TR-FRET assay (p53-MDM2 Assay 1)
- Format: binding
- test conditions: 1.25 nM MDM2-biotinylated, 10 nM Cy5-p53 peptide; read-out: IC50 (μM) of p53-Hdm2 inhibition (TR-FRET) Assay 1

>  <molecule>
COc1cc2c(cc1OC(C)C)[C@H](c1ccc(Cl)cc1)N(c1ccc([C@@](C)(O)C3CCC(F)(F)CC3)cc1)C(=O)C2 (single isomer, unassigned) [Example 47]

>  <unit text>
µM

>  <IC50>
0.005

$$$$
>  <molecule>
COc1cc2c(cc1OC(C)C)[C@H](c1ccc(Cl)cc1)N(c1ccc(C(C)(O)C3CCOC3)cc1)C(=O)C2 (stereo partly drawn) [Example 48]

>  <unit text>
µM

>  <IC50>
0.0432

$$$$
>  <molecule>
COc1cc2c(cc1OC(C)C)[C@H](c1ccc(Cl)cc1)N(c1ccc(C(C)(O)c3ccc(NC(C)=O)cc3)nc1)C(=O)C2 (stereo partly drawn) [Example 24]

>  <unit text>
µM

>  <IC50>
0.0544

$$$$

---

Quick reference for log10 IC50 among some compounds
- subject of test: human MDM2 protein (amino acids 2-188) (Homo sapiens)
- Construct: human MDM2 protein (amino acids 2-188); made in house
- assay procedure: p53-MDM2 TR-FRET assay (p53-MDM2 Assay 1)
- Type: binding
- test conditions: 1.25 nM MDM2-biotinylated, 10 nM Cy5-p53 peptide; read-out: IC50 (μM) of p53-Hdm2 inhibition (TR-FRET) Assay 1
observation type: log10 IC50 (log10 of the value in µM)

>  <compound>
COc1cc2c(cc1OC(C)C)[C@H](c1ccc(Cl)cc1)N(c1ccc(C(C)(O)C3CCCCC3)cc1)C(=O)C2 (stereo partly drawn)

>  <assay value>
-1.81

$$$$
>  <compound>
COc1cc2c(cc1OC(C)C)[C@H](c1ccc(Cl)cc1)N(c1ccc(C(C)(O)C3CCN(C(C)=O)CC3)cc1)C(=O)C2 (stereo partly drawn)

>  <assay value>
-2.64

$$$$
>  <compound>
COc1cc2c(cc1OC(C)C)[C@H](c1ccc(Cl)cc1)N(c1ccc(C(C)(O)C3CCN(C(=O)N(C)C)CC3)cc1)C(=O)C2 (stereo partly drawn)

>  <assay value>
-2.49

$$$$
>  <compound>
COc1cc2c(cc1OC(C)C)[C@H](c1ccc(Cl)cc1)N(c1ccc(C(O)C3CCOCC3)cc1)C(=O)C2 (stereo partly drawn)

>  <assay value>
-1.48

$$$$
>  <compound>
COc1ccc(C(O)(c2ccc(N3C(=O)Cc4cc(OC)c(OC(C)C)cc4[C@@H]3c3ccc(Cl)cc3)cc2)C(F)(F)F)cc1 (stereo partly drawn)

>  <assay value>
-0.88

$$$$
>  <compound>
COc1cc2c(cc1OC(C)C)[C@H](c1ccc(Cl)cc1)N(c1ccc([C@@](C)(O)C34CCC(CC3)O4)cc1)C(=O)C2 (single isomer, unassigned)

>  <assay value>
-2.60

$$$$

---

- subject of test: human MDM4 protein (amino acids 2-185) (Homo sapiens, UniProt O15151)
- Construct: human MDM4 protein (amino acids 2-185); made in house
- Sequence (O15151 2-185): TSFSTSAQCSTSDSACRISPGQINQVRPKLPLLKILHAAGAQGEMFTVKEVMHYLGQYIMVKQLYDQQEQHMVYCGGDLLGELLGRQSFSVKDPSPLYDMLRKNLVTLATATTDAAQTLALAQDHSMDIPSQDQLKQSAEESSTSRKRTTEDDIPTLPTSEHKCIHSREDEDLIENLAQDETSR
- assay procedure: p53-MDM4 TR-FRET assay (p53-MDM4 Assay 1)
- Format: binding
- test conditions: 2.5 nM MDM4-biotinylated, 10 nM Cy5-p53 peptide; read-out: IC50 (μM) of p53-Hdm4 inhibition (TR-FRET) Assay 1
Quick reference for IC50 among some molecules

>  <molecule>
CNC(=O)N1CCC(C(C)(O)c2ccc(N3C(=O)Cc4cc(OC)c(OC(C)C)cc4[C@@H]3c3ccc(Cl)cc3)cc2)CC1 (stereo partly drawn) [Example 79]

>  <IC50 [µM]>
5.63

$$$$
>  <molecule>
COc1cc2c(cc1OC(C)C)[C@H](c1ccc(Cl)cc1)N(c1ccc(C(C)(O)c3ccn(C)n3)cc1)C(=O)C2 (stereo partly drawn) [Example 14]

>  <IC50 [µM]>
53.7

$$$$
>  <molecule>
COc1cc2c(cc1OC(C)C)[C@H](c1ccc(Cl)cc1)N(c1ccc([C@@](C)(O)c3ccc(NC(C)=O)cc3)cc1)C(=O)C2 [Example 26]

>  <IC50 [µM]>
8.25

$$$$
>  <molecule>
COc1cc2c(cc1OC(C)C)[C@H](c1ccc(Cl)cc1)N(c1ccc([C@](C)(O)C3CCOCC3)c(F)c1)C(=O)C2 (single isomer, unassigned) [Example 38]

>  <IC50 [µM]>
84

$$$$
>  <molecule>
COc1cc2c(cc1OC(C)C)[C@H](c1ccc(Cl)cc1)N(c1ccc(C(C)(O)c3ccncc3)cc1)C(=O)C2 (stereo partly drawn) [Example 17]

>  <IC50 [µM]>
7.73

$$$$
>  <molecule>
COc1cc2c(cc1OC(C)C)[C@H](c1ccc(Cl)cc1)N(c1ccc([C@](C)(O)c3ccc(NC(C)=O)cc3)cc1)C(=O)C2 [Example 27]

>  <IC50 [µM]>
36.3

$$$$

---

- subject of test: human MDM2 protein (amino acids 2-188) (Homo sapiens, UniProt Q00987)
- Construct: human MDM2 protein (amino acids 2-188); made in house
- assay procedure: p53-MDM2 TR-FRET assay (p53-MDM2 Assay 1)
- Type: binding
- test conditions: 1.25 nM MDM2-biotinylated, 10 nM Cy5-p53 peptide; read-out: IC50 (μM) of p53-Hdm2 inhibition (TR-FRET) Assay 1
Quick reference for IC50 among some molecules
observation type: IC50 (µM)

>  <molecule>
CC[C@@H](C)Oc1cc2c(cc1OC)CC(=O)N(c1ccc(C(C)(O)C3CCN(C(C)=O)CC3)cc1)[C@H]2c1ccc(Cl)cc1 (stereo partly drawn)

>  <unit text>
µM

>  <assay value>
0.0018

$$$$
>  <molecule>
COc1cc2c(cc1OC(C)C)[C@H](c1ccc(Cl)cc1)N(c1ccc([C@@](C)(O)C3CCS(=O)(=O)CC3)cc1)C(=O)C2

>  <unit text>
µM

>  <assay value>
0.0015

$$$$
>  <molecule>
COc1cc2c(cc1OC(C)C)[C@H](c1ccc(Cl)cc1)N(c1ccc(C(C)(O)C3CN(C4CCOCC4)C3)cc1)C(=O)C2 (stereo partly drawn)

>  <unit text>
µM

>  <assay value>
0.0342

$$$$
